# TARGET: T1, human CD40 on cells (human, UniProt P25942 21-277)
# T1 construct: whole, on cells; The cell line used is named in each row's assay; also called hCD40; TNFRSF5
# T1 sequence (P25942 21-277): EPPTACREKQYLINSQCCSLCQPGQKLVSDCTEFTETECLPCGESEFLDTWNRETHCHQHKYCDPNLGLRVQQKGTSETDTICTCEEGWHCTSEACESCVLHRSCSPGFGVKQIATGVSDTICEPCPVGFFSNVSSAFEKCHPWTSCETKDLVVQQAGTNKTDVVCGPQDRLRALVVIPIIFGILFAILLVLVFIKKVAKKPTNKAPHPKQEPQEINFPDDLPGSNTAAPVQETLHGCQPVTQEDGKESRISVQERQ
# TEST DESCRIPTION: FACS, Raji cells
PROPERTY: pEC50
Reminder that pEC50 is minus the log10 of a molar concentration.

{"BINDER": "PR006516 (antibody, human IgG1, kappa, V domains shown, PR003379 variant L:S93H; human IgG1 L234A, L235A, G237A) VH: QVQLVQSGAEVKKPGASVKVSCKASGYTFAGYYMYWVRQAPGQGLEWMGWINPDSGAPTYAQKFQGRVTMTRDTSISTAYMELSRLRSDDTAVYYCAREKIYYGSGNYYPSFDYWGQGTLVTVSS VL: DIQLTQSPSFLSASVGDRVTITCRASQGISSYLAWYQQKPGKAPKLLIYAASTLQSGVPSRFSGSGSGTEFTLTISSLQPEDFATYYCQQLNHYPWTFGQGTKVEIKR", "PROPERTY": "pEC50", "RECORDED MEASUREMENT": 9.45}

# next binder below
Enquiry: Which pEC50 is reported for this binder? PR006507 (antibody, human IgG1, kappa, V domains shown, PR003379 variant L:S93E; human IgG1 L234A, L235A, G237A) VH: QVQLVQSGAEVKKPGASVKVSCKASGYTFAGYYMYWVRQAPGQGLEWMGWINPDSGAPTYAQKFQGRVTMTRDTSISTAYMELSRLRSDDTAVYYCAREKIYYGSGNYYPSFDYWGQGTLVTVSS VL: DIQLTQSPSFLSASVGDRVTITCRASQGISSYLAWYQQKPGKAPKLLIYAASTLQSGVPSRFSGSGSGTEFTLTISSLQPEDFATYYCQQLNEYPWTFGQGTKVEIKR
Return: 9.42
